target: T1, recombinant human CD63 extracellular loop 2 expressed with a C-terminal human Fc tag (human); test: SPR Biacore, mAb captured, 37C
T1 construct: also called hCD63 EC loop 2-hFc; human CD63 EC loop 2-Fc
T1 sequence (chain, as listed by the source limits assumed): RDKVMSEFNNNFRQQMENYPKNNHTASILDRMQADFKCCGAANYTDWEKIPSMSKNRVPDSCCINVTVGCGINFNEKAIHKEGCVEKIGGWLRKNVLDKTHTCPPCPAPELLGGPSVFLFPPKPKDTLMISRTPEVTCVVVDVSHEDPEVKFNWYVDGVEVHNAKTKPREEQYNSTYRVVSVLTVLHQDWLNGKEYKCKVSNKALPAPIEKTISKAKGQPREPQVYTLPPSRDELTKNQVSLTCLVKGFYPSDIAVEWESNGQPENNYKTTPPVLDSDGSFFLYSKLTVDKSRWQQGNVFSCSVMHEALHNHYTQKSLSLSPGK
recordedEndpoint: Kd (nM)
Return type: number; implicit unit nM.

binder	recordedEndpoint	testValue
H2M12387N (antibody, V domains shown, also called H2aM12387N) VH: QVQLEESGGGVVKAGGSLRLSCAASGFTFSDYYMNWIRQAPGKGLEWVSYINNGGYTIYYADSVKGRFTMSRDNAKNSVYLQMNGLRAEDTAFYYCVRDPRSYYGFDYWGQGTLVIVSS VL: DIQMTQSPSSLSASVGDRVTITCRASQSISRFLHWYQQKPGKAPKLLIYGASSLQSGVPSRFSGSGSGTDFTLTISSLQPEDFATYYCQQSYSTPPITFGQGTRLEIK	Kd	0.596
H2M12395N (antibody, V domains shown, also called H2aM12395N) VH: QVQLQESGPRLVKPSETLSLTCIVSGGSISNFYWNWIRQSPGKGLEWIGYFFYTGTIDYNPSLKSRVTISLDTSKNQFSLNLRLLTAADAAVYYCARMGLGANAFDIWGHGTMVTVSS VL: EIVLTQSPGTLSLSPGERATLSCRASQHVSSNYLAWYQQKPGQAPRLLIYGGSSRATGIPDRFSGSGSGTDFTLTISRLEPADFAVFYCQQYGNSPWTFGQGTKVEMK	Kd	3.38

-- ask Give the measured Kd for H2M12385N (antibody, V domains shown, also called H2bM12385N; H2bM12385) VH: QVQLVESGGGLVKPGGSLRLSCAASGFTFTDYFMNWIRQAPGKGLEWVSYISNSGAIKYQADSVKGRFTISRDNAKNSLYLQMNSLRADDTAVYYCVRDPRSYYGFDYWGQGTLVTVSS VL: DIQMTQSPSSLSASVGDRVTITCRASQSIRNFLNWYQQKPGKAPRLLIYAASSLQSGVPSRFSGGGSGTDFTLTISSLQPEDFATYYCQQSYSNPPITFGQGTRLEIK
-- reply 2.05
